- Study System: UniProt P43405
- Procedure Details: Inhibition of Enzymatic Syk Kinase Activity: 2.5 μL of 10% DMSO or compound in 10% DMSO was added to the wells in a 96 well V-bottom plate. Optimized concentration of in-house Syk enzyme (different batches of Syk (356-635) kinase domain) were used at optimized concentrations) ranging from 0.035 ng to 7.5 ng/reaction diluted in assay buffer was added to a total volume of 12.5 μL). Compound and protein were incubated for 30 minutes at room temperature on a plate shaker. Ten μL of a substrate mix containing 100 μM ATP (0.25 μL), γ-P32-ATP (0.1 μL; 10 μCi/μL), pG4T (0.25 μL; 10 mg/mL) and 1× assay buffer (9.4 μL) was added to all the wells. Samples were incubated at 30° C. for 10 minutes after mixing. The reaction was stopped by the addition of 8N HCl (13 μL) containing 100 mM ATP. Thirty μL of sample was transferred to the center of a 2×2 cm2 Whatman P81 chromatography paper. After allowing the sample to dry for one minute, the assay squares were washed 3 times for 5 minutes each in ortho-phosphoric acid (0.5%) and once in acetone. Assay squares were dried for 15 minutes in a 30° C. oven and transferred to 96 well optiplate. Microscint-O reagent (100 μL, Perkin Elmer) was added to each well, the plate was sealed with Topseal-A microplates and incubated for 10 minutes at room temperature at very low speed on rocker and the plate was read in the Topcount NXL instrument.
Measurement Type: IC50

stdin: What value of measured IC50 is listed for O=c1[nH]ncc2nc(N3CCCCCC3)nc(Nc3ccc(OCCN4CCCNCC4)cc3)c12 ?
stdout: < 50 nM

stdin: Entry CC(C)(C(N)=O)N1CCN(c2ccc(Nc3nc(N4CCCCCC4)nc4cn[nH]c(=O)c34)cc2)CC1 please
stdout: < 50 nM

stdin: Entry N#CCC1CCN(c2nc(Nc3ccc(N4CCC(F)(F)CC4)cc3)c3c(=O)[nH]ncc3n2)CC1 please
stdout: < 50 nM

stdin: Entry N#CCC1CCN(c2nc(Nc3ccc(N4CCCC(O)C4)nc3)c3c(=O)[nH]ncc3n2)CC1 (stereo not given) please
stdout: < 50 nM

***
stdin: What value of measured IC50 is listed for O=C(O)C1CC12CCC(c1ccc(Nc3nc(N4CCCCC4)nc4cn[nH]c(=O)c34)cc1)CC2 (stereo not given) ?
stdout: < 50 nM

stdin: Entry O=C(O)C1CC12CCN(c1ccc(Nc3nc(-c4ccc(F)cc4)nc4cn[nH]c(=O)c34)cc1)CC2 (stereo not given) please
stdout: < 100 nM

stdin: Entry CC(C)(CO)Oc1ccc(Nc2nc(N3CCC(CC#N)CC3)nc3cn[nH]c(=O)c23)cc1 please
stdout: < 50 nM

stdin: Entry COc1ccc(-c2nc(Nc3ccc(N4CCC5(CC4)CC5C(=O)O)cc3)c3c(=O)[nH]ncc3n2)cc1 (stereo not given) please
stdout: < 100 nM

stdin: Entry O=c1[nH]ncc2nc(N3CCCCCC3)nc(Nc3ccc(OCCN4CCNCC4)cc3)c12 please
stdout: < 50 nM

stdin: Entry O=C(O)CN1CCN(c2ccc(Nc3nc(N4CCCCCC4)nc4cn[nH]c(=O)c34)cc2)CC1 please
stdout: < 10 nM

stdin: Entry CC(C)(Oc1ccc(Nc2nc(N3CCCCCC3)nc3cn[nH]c(=O)c23)cc1)C(=O)O please
stdout: < 50 nM

stdin: Entry CC(C)(C#N)N1CCN(CCOc2ccc(Nc3nc(N4CCCCCC4)nc4cn[nH]c(=O)c34)cc2)CC1 please
stdout: < 50 nM

stdin: Entry CC(C)(O)C(=O)N1CCN(c2ccc(Nc3nc(N4CCC(CC#N)CC4)nc4cn[nH]c(=O)c34)cn2)CC1 please
stdout: < 50 nM

stdin: Entry O=C(O)C1CC12CCC(c1ccc(Nc3nc(NC4CCCCC4)nc4cn[nH]c(=O)c34)cc1)CC2 (stereo not given) please
stdout: < 50 nM

stdin: Entry CC1CC(C)CN(c2nc(Nc3ccc(N4CCC(CC(=O)O)CC4)cc3)c3c(=O)[nH]ncc3n2)C1 (stereo not given) please
stdout: < 50 nM

stdin: Entry COc1cc(Nc2nc(N3CCCCCC3)nc3cn[nH]c(=O)c23)cc(OC)c1 please
stdout: > 100 nM

stdin: Entry N#CCC1CCN(c2nc(Nc3ccc(F)cc3)c3c(=O)[nH]ncc3n2)CC1 please
stdout: > 100 nM

stdin: Entry O=C1CC2(CCN(c3nc(Nc4ccc(CN5CCNCC5)cc4)c4c(=O)[nH]ncc4n3)CC2)CC(=O)N1 please
stdout: > 100 nM

stdin: Entry CN(c1nc(Nc2ccc(N3CCC4(CC3)CC4C(=O)O)cc2)c2c(=O)[nH]ncc2n1)C1CCCCC1 (stereo not given) please
stdout: < 50 nM

stdin: Entry O=c1[nH]ncc2nc(N3CCCCC3)nc(Nc3ccc(OCCN4CCCNCC4)cc3)c12 please
stdout: < 50 nM
